Just for reference, PubChem BioAssay AID1963829 is where these values come from.

Tested on: 935938-334-R-J1-PDC complex spheroid viability;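 also: spheroids exposed to drugs for seven days before viability read; 100% = DMSO vehicle control wells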
Experiment Summary: Anticancer human tumor 935938-334-R-J1-PDC patient-derived small intestine adenocarcinoma cell line growth inhibition [POLQ]
Setup Conditions: second compound 0.316 µM; first compound 0.316 µM; stronger effect = lower value
Property: viability, T/C

In the examples that follow, each entry is paired with its recorded viability, T/C.
Compound	Property	Test Value
CC(C)n1c(=O)n(C)c2cnc3cc(F)c(-c4ccc(OCCCN5CCCCC5)nc4)cc3c21 + COC1C(OC(N)=O)C(O)C(Oc2ccc3c(O)c(NC(=O)c4ccc(O)c(CC=C(C)C)c4)c(=O)oc3c2C)OC1(C)C	viability, T/C	118%
O=C(Nc1ccc(O)c(NS(=O)(=O)c2ccc(F)cc2)c1)c1ccc(-c2ccccc2)cc1 + Cc1cccc(N(C)C(=O)C2C(O)CCN2c2nc(C)cc(C(F)(F)F)c2C#N)c1	viability, T/C	71.4%
C#Cc1c(F)ccc2cc(O)cc(-c3ncc4c(N5CC6CCC(C5)N6)nc(OCC56CCCN5CC(F)C6)nc4c3F)c12 (stereo not given) + Cc1cccc(N(C)C(=O)C2C(O)CCN2c2nc(C)cc(C(F)(F)F)c2C#N)c1	viability, T/C	87.6%

Asked: Please give the documented viability, T/C of COc1ccc([C@@H](O)c2cc(-c3ncnc4cc(N5CCOCC5)ccc34)c(F)cc2Cl)nn1 + Nc1ccc(C#CCN(C(=O)Cc2ncc(C(F)(F)F)cc2C(F)(F)F)c2ccc(F)cc2)nn1
Given back: 110%

Asked: Please give the documented viability, T/C of O=c1[nH]cc(F)c(=O)[nH]1 + Nc1ccc(C#CCN(C(=O)Cc2ncc(C(F)(F)F)cc2C(F)(F)F)c2ccc(F)cc2)nn1
Given back: 88.9%
